# TARGET_OR_TEST_SYSTEM: hLPAR1 (Homo sapiens, UniProt Q92633)
# Sequence (Q92633 whole entry): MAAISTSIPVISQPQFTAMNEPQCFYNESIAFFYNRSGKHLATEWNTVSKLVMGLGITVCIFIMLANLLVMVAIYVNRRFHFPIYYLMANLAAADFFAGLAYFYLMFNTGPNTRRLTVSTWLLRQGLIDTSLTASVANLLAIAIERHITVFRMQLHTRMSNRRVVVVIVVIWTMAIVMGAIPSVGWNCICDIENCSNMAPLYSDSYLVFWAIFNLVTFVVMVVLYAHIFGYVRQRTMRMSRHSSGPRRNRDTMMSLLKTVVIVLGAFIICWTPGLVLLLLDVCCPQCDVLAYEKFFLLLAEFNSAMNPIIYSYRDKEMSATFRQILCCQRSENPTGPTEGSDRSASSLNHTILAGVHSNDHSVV
# EXPERIMENT_SUMMARY: Ca2+ Flux Assay (B103 cells stably expressing hLPAR1)
# CONDITION_SET: LPA-induced calcium release, Fura-2 AM, compound 20 min at RT
REPORTED_METRIC: IC50

# example entries with known answers
Cc1cc(NC(=O)O[C@H](C)c2ccccc2)c(C2CCN(c3ccc(C4(C(=O)O)CC4)cc3)CC2)s1 [Compound 91]    ≥ 3000 nM
Cc1noc(C2CCN(c3ccc(C4(C(=O)O)CC4)cc3)CC2)c1NC(=O)OC(C)C1CCCCC1 (centres unmarked) [Compound 96]    10 to 200 nM
Cc1noc(C2CCN(c3ccc(C4(C(=O)NS(=O)(=O)CC(=O)O)CC4)cc3)CC2)c1NC(=O)O[C@H](C)c1ccccc1 [Compound 80]    < 10 nM
Cc1noc(C2CCN(c3ccc(C4(C(=O)O)CC4)nc3)CC2)c1NC(=O)O[C@H](C)c1ccccc1 [Compound 90]    10 to 200 nM
Cc1noc(C2CCN(c3ccc(C4(C(=O)O)CC4)cc3)CC2)c1N[C@H](C)CCc1ccccc1 [Compound 22]    10 to 200 nM

Then this compound:
Give hLPAR1 (Homo sapiens, UniProt Q92633) IC50 for Cc1noc(C2CC3(C2)CN(c2ccc(C4(C(=O)NS(=O)(=O)CCC(=O)O)CC4)cc2)C3)c1NC(=O)O[C@H](C)c1ccccc1 [Compound 50]
< 10 nM
